# Test system: Wolbachia pipientis
# protocol-summary: Anti-Wolbachia Cell-Based Screen
# Assay type: functional
# Parameters: scale not given: in the data most compounds retested in dose-response had high values
# conditions: 5 µM
In all, about 48,000 compounds went through this assay and about 13,000 (27%) showed an effect of 50% or more. Some of the results follow.
observation-type: Percent Effect (%)
Output spec: scalar in %, unitless text.

Sure, the documented Percent Effect for `Cc1nc(C(=O)N2CCN(c3ncccn3)[C@@H]3CS(=O)(=O)C[C@@H]32)cs1` is -1.503

----------
# Tested on: Wolbachia pipientis
# protocol-summary: Anti-Wolbachia Cell-Based Screen
# Assay type: functional
# Parameters: scale not given: in the data most compounds retested in dose-response had high values
# conditions: 5 µM
The campaign covered roughly 48,000 compounds. About 13,000 (27%) showed an effect of 50% or more. The list shows a part of the results.
The entries below are paired with their reported Percent Effect.
Output spec: scalar in %, unitless text.

Solved entries (count: 10):
Sure, the documented Percent Effect for `COc1ccccc1C(=O)N1CCN(CCc2scnc2C)CC1` is -5.378

Sure, the documented Percent Effect for `O=C(Nc1ncn(Cc2cccc(Br)c2)n1)C1CCC1` is 6.264

Sure, the documented Percent Effect for CCN(Cc1ccncc1)C1CCCN(Cc2ccc(F)cc2OC)C1 (stereo not drawn) is -6.511

Sure, the documented Percent Effect for `O=C(CC1CC1)N1CCn2cc(Cn3cncn3)nc2C1` is 0.5446

Sure, the documented Percent Effect for `CC(C)CCN1CCN(C(=O)c2cccnc2-n2cncn2)CC1` is 7.327

Sure, the documented Percent Effect for CCOc1ccc(NC2CCN(C)C2=O)cn1 (stereo not drawn) is -24.45

Sure, the documented Percent Effect for Cc1ncsc1C(=O)N1CCN(Cc2ccccc2)CC1C (stereo not drawn) is 4.154

Sure, the documented Percent Effect for `COc1cc(C)nc(N2CCN(C(=O)CCc3ccsc3)CC2)n1` is 17.96

Sure, the documented Percent Effect for `Cc1ncsc1C(=O)N1CCN(CCC(C)C)CC1` is 114

Sure, the documented Percent Effect for `Cc1ncsc1C(=O)N1CCC(Nc2cccnn2)CC1` is -12.54

More entries:
Sure, the documented Percent Effect for CC(C)C(C(=O)N(C)C)c1cccc(Cl)c1 (stereo not drawn) is -9.046

Sure, the documented Percent Effect for `CCN1CCN(C(=O)c2scnc2C)CC1` is 114.5

Sure, the documented Percent Effect for `O=C(O)C(F)(F)F.O=S(=O)(C1CC1)N1CCc2ncnc(-c3ccncc3)c2CC1` is -12.42

----------
The entries below are paired with their reported Percent Effect.
# Tested on: Wolbachia pipientis
# protocol-summary: Anti-Wolbachia Cell-Based Screen
# Assay type: functional
# Design: scale not given: in the data most compounds retested in dose-response had high values
# conditions: 5 µM
Hit rate of the full screen: of about 48,000 compounds, about 13,000 (27%) showed an effect of 50% or more. The list shows a part of the results.
Output spec: scalar in %, unitless text.

Solved entries (count: 6):
Sure, the documented Percent Effect for CS(=O)(=O)NCC(=O)NC(Cc1ccccc1)C1CCCC1 (stereo unspecified) is -11.78

Sure, the documented Percent Effect for `COCCNC(=O)[C@H]1CC[C@@H]2[C@@H](CCN2c2ncc(F)cn2)O1.O=C(O)C(F)(F)F` is 0.7223

Sure, the documented Percent Effect for `Cc1noc([C@@]23CCO[C@@H]2CCN(C(=O)c2c(C)noc2C)C3)n1` is -5.968

Sure, the documented Percent Effect for `CS(=O)(=O)Cc1nc(C2CC2)nn1-c1ccccn1` is -14.62

Sure, the documented Percent Effect for `Fc1ccc(CN2CCO[C@H]3[C@H](OCCN4CCCC4)CC[C@@H]32)cc1.O=C(O)C(F)(F)F.O=C(O)C(F)(F)F` is -15.45

Sure, the documented Percent Effect for `CC1CCN(CCNC(=O)C2CCN(C(=O)C(C)(C)C)CC2)CC1` is 2.038

From here, focus on the item given below.
Sure, the documented Percent Effect for `CNC(=O)C(C)(C)N1CCC[C@H]1C(=O)NCCN1CCOCC1` is 8.557

----------
# Test system: Wolbachia pipientis
# protocol-summary: Anti-Wolbachia Cell-Based Screen
# Type: functional
# Design: scale not given: in the data most compounds retested in dose-response had high values
# conditions: 5 µM
The whole screen tested about 48,000 compounds, of which about 13,000 (27%) showed an effect of 50% or more. This is one part of the list.
observation-type: Percent Effect (%)
Output spec: scalar in %, unitless text.

Solved entries (count: 4):
Sure, the documented Percent Effect for `O=C(O)c1cc(-c2ccoc2)cc(S(=O)(=O)N2CCSCC2)c1` is 11.83

Sure, the documented Percent Effect for CN1C(=O)CC(C(=O)O)C12CCN(Cc1cc(Cl)ccc1F)CC2 (stereo not given) is -0.96

Sure, the documented Percent Effect for `Cc1ccc(C)c(C(=O)Nc2ccc(OC3CCN(C)CC3)cc2)c1` is -4.844

Sure, the documented Percent Effect for `Cc1ccc(-c2nccn2-c2ccc(OC3CCN(C)CC3)cc2)o1` is 109.9

More entries:
Sure, the documented Percent Effect for `Cc1nc(-c2c(-c3ccccc3)ncn2[C@H]2C[C@@H](C(=O)O)N(C)C2)co1` is -9.295

----------
The entries below are paired with their reported Percent Effect.
# Test system: Wolbachia pipientis
# protocol-summary: Anti-Wolbachia Cell-Based Screen
# Type: functional
# Set-up: scale not given: in the data most compounds retested in dose-response had high values
# conditions: 5 µM
Among all 48,000 compounds or so, about 13,000 (27%) showed an effect of 50% or more. The list shows a part of the results.

Sure, the documented Percent Effect for `c1ccc(CN2CCc3ncnc(-c4cncnc4)c3CC2)nc1` is -4.171%

Sure, the documented Percent Effect for `COc1ncnc2c1CCN(Cc1cccs1)CC2.O=C(O)C(F)(F)F` is -7.322%

Sure, the documented Percent Effect for `O=C(O)C(F)(F)F.O=C(O)C(F)(F)F.c1cncc(-c2ncnc3c2CCN(Cc2ccsc2)CC3)c1` is 91.57%

Sure, the documented Percent Effect for O=C(C1CCOC1)N1CCc2ncnc(-c3cccnc3)c2CC1 (stereo unspecified) is 8.249%

More entries:
Sure, the documented Percent Effect for O=C(CCn1ncc2ccccc21)N1CCCC(Cc2cccnc2)C1 (stereo unspecified) is 101.6%

Sure, the documented Percent Effect for `CCc1ccc(CN2CCc3ncnc(-c4cccnc4)c3CC2)o1.O=C(O)C(F)(F)F.O=C(O)C(F)(F)F` is 106.1%

----------
# Tested on: Wolbachia pipientis
# protocol-summary: Anti-Wolbachia Cell-Based Screen
# Format: functional
# Design: scale not given: in the data most compounds retested in dose-response had high values
# conditions: 5 µM
About 13,000 (27%) of roughly 48,000 compounds showed an effect of 50% or more. The list shows a part of the results.
observation-type: Percent Effect (%)
Output spec: scalar in %, unitless text.

Solved entries (count: 5):
Item: `CNc1nc(CNC(=O)Nc2cccc(F)c2C)cs1` | System: Wolbachia pipientis | Percent Effect: -1.885

Item: `O=C(Nc1ccccc1C(=O)NCCN1CCOCC1)c1ccco1` | System: Wolbachia pipientis | Percent Effect: 0.2432

Item: COCCN1CCCC1c1nccnc1Nc1nccs1 (configuration not stated) | System: Wolbachia pipientis | Percent Effect: 95.24

Item: COc1c(C2CCCN2CCOc2ccccc2C#N)c(C)nn1C (configuration not stated) | System: Wolbachia pipientis | Percent Effect: -6.58

Item: CCC1CN(C(=O)c2ccccc2N2CCCC2)CCN1C(C)C (configuration not stated) | System: Wolbachia pipientis | Percent Effect: -3.455

More entries:
Item: CN1CCOCC2(CCCN(C(=O)c3cn(C)cn3)C2)C1.O=C(O)C(F)(F)F (configuration not stated) | System: Wolbachia pipientis | Percent Effect: -3.228

Item: `O=C(CCOc1ccccc1F)N1CCC(O)CC1` | System: Wolbachia pipientis | Percent Effect: 96.9

Item: `O=C(Nc1ccc(I)cc1C(=O)NCCN1CCOCC1)c1ccco1` | System: Wolbachia pipientis | Percent Effect: 13.86

Item: Cc1cnc(NC(=O)c2ccc(C3CCCN3CC(C)C)s2)s1 (configuration not stated) | System: Wolbachia pipientis | Percent Effect: -4.424

Item: `CN(CCOc1ccccc1F)S(=O)(=O)CC1CCOCC1` | System: Wolbachia pipientis | Percent Effect: 2.029

Item: CC(O)CN1CCN(C(=O)CCOc2ccccc2F)CC1 (configuration not stated) | System: Wolbachia pipientis | Percent Effect: 109.3

Item: `Cn1cnnc1C1CCN(C(=O)CCCOc2ccccc2F)CC1` | System: Wolbachia pipientis | Percent Effect: -1.592

----------
The entries below are paired with their reported Percent Effect.
# Test system: Wolbachia pipientis
# protocol-summary: Anti-Wolbachia Cell-Based Screen
# Assay type: functional
# Design: scale not given: in the data most compounds retested in dose-response had high values
# conditions: 5 µM
In all, about 48,000 compounds went through this assay and about 13,000 (27%) showed an effect of 50% or more. The list shows a part of the results.
Output spec: scalar in %, unitless text.

Item: `CCS(=O)(=O)N1CCc2ccc(NC(=O)Nc3ccccc3)cc21` | System: Wolbachia pipientis | Percent Effect: 185.4

Item: COCC(C)Nc1ccc(-c2nc(Cc3ccc(F)cc3)no2)cn1 (stereo unspecified) | System: Wolbachia pipientis | Percent Effect: -40.71

Item: CCCc1n[nH]c(C2CN(CC(=O)N(C)Cc3ccco3)CCO2)n1 (stereo unspecified) | System: Wolbachia pipientis | Percent Effect: -31.39

Item: `Cc1ccccc1-c1noc(-c2ccc(N(C)C3CCOCC3)nc2)n1` | System: Wolbachia pipientis | Percent Effect: 1.469

Item: O=C(Nc1cccc2c1CCCC2)C1CCCN1c1nccs1 (stereo unspecified) | System: Wolbachia pipientis | Percent Effect: 15.72

More entries:
Item: CN1CCOC(c2cncc(CCC(N)=O)n2)C1 (stereo unspecified) | System: Wolbachia pipientis | Percent Effect: 120.9

Item: `Cc1ccc(NCCNC(=O)c2cc(CC(C)C)n[nH]2)nn1` | System: Wolbachia pipientis | Percent Effect: 121

Item: CC1CN(c2ncccc2C(=O)N[C@@H]2CCCc3ccccc32)CCN1 (stereo partly specified) | System: Wolbachia pipientis | Percent Effect: 127.7

Item: `CC(C)Cc1cc(C(=O)N2CCCN(c3cccnn3)CC2)[nH]n1` | System: Wolbachia pipientis | Percent Effect: -1.538

Item: CCCc1nnsc1C(=O)N1CCN(CC(O)c2ccco2)CC1.Cl (stereo unspecified) | System: Wolbachia pipientis | Percent Effect: -2.42

Item: Cc1ccc2c(c1)C(N(C)C)CC21CCN(CCO)CC1.O=C(O)C(F)(F)F.O=C(O)C(F)(F)F (stereo unspecified) | System: Wolbachia pipientis | Percent Effect: 1.059

Item: Cc1nnc2n1CC(CNCc1nc(-c3cccs3)no1)CC2 (stereo unspecified) | System: Wolbachia pipientis | Percent Effect: -7.356

Item: CCc1n[nH]c(C2CN(Cc3nccn3CC)CCO2)n1 (stereo unspecified) | System: Wolbachia pipientis | Percent Effect: -1.514
